// data source = PubChem BioAssay

assay: small-molecule binders of probe aNOTCH3, primary screen, biochemical, small-molecule microarray, 635/667 nm fluorescence (AID 1120); conditions: higher = more signal;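 further: probe is a biotin-tagged antibody raised against NOTCH3 rather than NOTCH3 protein; score merges spot fluorescence near 667 nm with spot signal to noise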
quantity: composite z-score
Format: numeric value only, no unit, no commentary.

# molecule, composite z-score
rows = [
    ("CO[C@H]1COC(=O)[C@H](C)COC(=O)CC=C[C@@H](C)[C@H](OC)COC(=O)CC=C[C@@H]1C", -0.132),
    ("CC(C)[C@H](NC(=O)OC(C)(C)C)[C@@H](O)CC(=O)OC(C)(C)C", -0.235),
    ("COCCOC(=O)N1C(=O)[C@@]2(c3cc(C#CCNC(N)=O)ccc31)[C@H](c1ccc(O)cc1)N1[C@H](c3ccccc3)[C@H](c3ccccc3)OC(=O)[C@H]1[C@@H]2C(=O)N1CCCCCCC1", 0.207),
]

Input: Param item = COc1cccc([C@H]2Oc3ccc(OC)cc3C(=NOC(C)CN3CCCc4nc(C)c(C)cc43)[C@@H]2O)c1 (some centres not stated) ; retrieve measured composite z-score.
Output: 0.119

Input: Param item = [N-]=[N+]=NCc1ccccc1C[C@]1(C(=O)NCc2ccccc2)N=C(c2ccc(OCCCO)cc2)O[C@H]1c1ccccc1N=[N+]=[N-] ; retrieve measured composite z-score.
Output: 0.531

Input: Param item = CN1C(=O)C2C=CC(C(O)c3ccc(I)cc3)N(NC(=O)OC(C)(C)C)C2C1=O (configuration not stated) ; retrieve measured composite z-score.
Output: 0.435

Input: Param item = COc1ccc(COC(=O)NN=C2C[C@@H](O)[C@@H](O)[C@@H]3[C@@H]4C(=O)N(c5ccc(F)cc5F)C(=O)[C@@H]4CC[C@@H]23)cc1 ; retrieve measured composite z-score.
Output: 0.112
